System: FLT3-autoinhibited
condition-context: concentration: 1 μM, replicates: in singlicate; n = 1;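 also: KINOMEscan kinase panel screen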
measured-property: %Inh (%)
Give a bare numeral; the unit % is implied.

Q: For the molecule COc1cc(Nc2ncc3c(C)nc(-c4cc5ccccc5[nH]4)n3n2)cc(OC)c1OC , give its measured %Inh value.
A: 75

Q: For the molecule O=C(Nc1n[nH]c2cc(-c3ccoc3)ccc12)C1CC1 , give its measured %Inh value.
A: 17

Q: For the molecule Cl.Cl.NCC(C(=O)Nc1cc(Br)c(-c2ccnc3[nH]ccc23)s1)c1ccccc1 (centres unmarked) , give its measured %Inh value.
A: 20

Q: For the molecule Cl.Cl.NCC(NC(=O)c1cc(-c2ccccc2)c(-c2ccnc3[nH]ccc23)s1)c1ccccc1 (centres unmarked) , give its measured %Inh value.
A: 0

Q: For the molecule Fc1ccc(-c2ncn(C3CCNCC3)c2-c2ccnc(Oc3ccc(-c4ccccc4)cc3)n2)cc1 , give its measured %Inh value.
A: 1

Q: For the molecule CN(c1ccc(NC(=O)Nc2cc(C(F)(F)F)ccc2F)cc1)c1ccnc(Nc2ccc(S(N)(=O)=O)cc2)n1 , give its measured %Inh value.
A: 82

Q: For the molecule Clc1ccc(-c2nn3ncccc3c2-c2ccnc(Nc3ccc4c(c3)OCCO4)n2)cc1 , give its measured %Inh value.
A: 0

Q: For the molecule COc1ccc(Nc2nccc(N3CCC(NC(=O)Nc4cccc(OC)c4)C3)n2)cc1 (centres unmarked) , give its measured %Inh value.
A: 20

Q: For the molecule CC(=O)Nc1nc2cnc(Nc3cc(NC(=O)c4cccc(C5(C#N)CC5)c4Cl)ccc3C)nc2s1 , give its measured %Inh value.
A: 0

Q: For the molecule CN1CCN(Cc2cccc(-c3ccc4c(Nc5ccc(Oc6ccccc6)cc5)ccnc4c3)c2)CC1 , give its measured %Inh value.
A: 36

Q: For the molecule Cc1occc1-c1ncc(OC[C@@H](N)Cc2c[nH]c3ccccc23)cc1-c1ccc2[nH]nc(C)c2c1.O=C(O)C(F)(F)F , give its measured %Inh value.
A: 0

Q: For the molecule c1ccc(-c2cnc3nccnn23)cc1 , give its measured %Inh value.
A: 0

Q: For the molecule COc1cccc(C(=O)Nc2cccc(Oc3ccc4nc(NC(=O)C5CC5)cn4n3)c2)c1 , give its measured %Inh value.
A: 24

Q: For the molecule CN(C)S(=O)(=O)c1cc(-c2ccc3nccc(-c4cccc(S(N)(=O)=O)c4)c3c2)cnc1N , give its measured %Inh value.
A: 19

Q: For the molecule COc1ccc(CNC(=O)NC2CCN(c3ccnc(Nc4ccc(F)cc4)n3)CC2)cc1 , give its measured %Inh value.
A: 0

Q: For the molecule CCc1ccc(-c2ccc3c(c2)-c2c(cnn2C)S(=O)(=O)N3C)cc1 , give its measured %Inh value.
A: 9

Q: For the molecule O=C(Nc1cccc(-c2nn3ccccc3c2-c2ccnc(Nc3cccc(F)c3)n2)c1)c1c(F)ccc(F)c1Cl , give its measured %Inh value.
A: 15

----------
System: WEE1
condition-context: concentration: 1 μM, replicates: in singlicate; n = 1
I'd be grateful if you could share measured %Inh for these entries.
Give a bare numeral; the unit % is implied.

Q: For the compound CC(C)c1nc(-c2cccc(NS(=O)(=O)c3c(F)cccc3F)c2F)c(-c2ccnc(Nc3ccc(N4CCOCC4)nc3)n2)s1 , give its measured %Inh value.
A: 0

Q: For the compound Cl.NC(=O)c1cccc(Nc2nccc(Nc3ccc(Oc4c(Cl)cccc4Cl)c(Cl)c3)n2)c1 , give its measured %Inh value.
A: 0

Q: For the compound Nc1ncc(-c2ccc3nccc(-c4ccncc4)c3c2)cc1S(=O)(=O)N1CCOCC1 , give its measured %Inh value.
A: 0

Q: For the compound CC(=O)Nc1nc2cnc(Nc3cc(NC(=O)c4cccc(C5(C#N)CC5)c4Cl)ccc3C)nc2s1 , give its measured %Inh value.
A: 0

Q: For the compound Cn1cc(-c2ccc3c(c2)CCN3C(=O)Cc2cccc(Cl)c2)c2c(N)ncnc21 , give its measured %Inh value.
A: 0

Q: For the compound COC(=O)Nc1nc2ccc(Oc3ccc(NC(=O)Nc4cc(C(F)(F)F)ccc4F)cc3)cc2n1C.Cl , give its measured %Inh value.
A: 2

Q: For the compound O=c1[nH]cc(-c2ccc(N3CCOCC3)cc2)c2sc(-c3cn[nH]c3)cc12 , give its measured %Inh value.
A: 4

Q: For the compound COc1cc(Nc2ncc3c(C)nc(-c4cc5ccccc5[nH]4)n3n2)cc(OC)c1OC , give its measured %Inh value.
A: 36

Q: For the compound COc1cc2c(cc1OCCN1CCNCC1)ncc1c3ccc(C#N)cc3[nH]c21 , give its measured %Inh value.
A: 0

Q: For the compound CCn1c(-c2nonc2N)nc2c(C#CC(C)(C)O)nc(OC[C@H](N)c3ccccc3)cc21 , give its measured %Inh value.
A: 1

Q: For the compound O=C(Nc1cccc(Oc2ccc3nc(NC(=O)C4CC4)cn3n2)c1)c1ccccc1C(F)(F)F , give its measured %Inh value.
A: 22

Q: For the compound O=C(NC1CCN(c2ccnc(Nc3ccc(F)cc3)n2)C1)c1cc2ccccc2s1 (stereo not shown) , give its measured %Inh value.
A: 50

Q: For the compound Cc1ccc(S(=O)(=O)Nc2ccc(Nc3nccc(Nc4cccc5[nH]ncc45)n3)cc2)cc1 , give its measured %Inh value.
A: 6

Q: For the compound Cl.c1ccc(-c2ccc3c(Nc4ccc5[nH]ccc5c4)ccnc3c2)nc1 , give its measured %Inh value.
A: 8

Q: For the compound Cc1ccc(C(=O)Nc2ccc(Nc3ccnc4cc(-c5nccs5)ccc34)cc2O)cc1.Cl , give its measured %Inh value.
A: 0

Q: For the compound Nc1ncc(-c2cccnc2)c2scc(-c3ccc4c(c3)CCN4C(=O)Cc3ccccc3)c12 , give its measured %Inh value.
A: 22

----------
I'd be grateful if you could share measured %Inh for these entries.
Test system: CDK4-cyclinD3
condition-context: concentration: 1 μM, replicates: in singlicate; n = 1
Give a bare numeral; the unit % is implied.

Q: For the compound CCn1c(-c2nonc2N)nc2c(C#CC(C)(C)O)nc(OC[C@H](N)c3ccccc3)cc21 , give its measured %Inh value.
A: 8

Q: For the compound Cn1cc(-c2ccc3c(c2)CCN3C(=O)Cc2cccc(F)c2)c2c(N)ncnc21 , give its measured %Inh value.
A: 0

Q: For the compound Cl.Cl.NCC(NC(=O)c1cc(-c2ccccc2)c(-c2ccnc3[nH]ccc23)s1)c1ccccc1 (centres unmarked) , give its measured %Inh value.
A: 0

Q: For the compound COc1ccc(-c2coc3ccc(-c4nnc(SCc5ccc(OC)c(C(F)(F)F)c5)o4)cc23)cc1 , give its measured %Inh value.
A: 0

Q: For the compound Cc1ccc(C)c(NC(=O)NC2CCN(c3ccnc(Nc4ccc(F)cc4)n3)C2)c1 (centres unmarked) , give its measured %Inh value.
A: 0

Q: For the compound Cl.Cl.NCC(NCc1ccc(-c2ccnc3[nH]ccc23)s1)c1ccccc1 (centres unmarked) , give its measured %Inh value.
A: 0

Q: For the compound Oc1cc(Nc2ccnc3cc(I)ccc23)ccc1F , give its measured %Inh value.
A: 0

Q: For the compound CN(c1ccc(NC(=O)Nc2cc(C(F)(F)F)ccc2F)cc1)c1ccnc(Nc2ccc(S(N)(=O)=O)cc2)n1 , give its measured %Inh value.
A: 5

Q: For the compound c1ccc(-c2cnc3nccnn23)cc1 , give its measured %Inh value.
A: 0

Q: For the compound CCc1ccc(-c2ccc3c(c2)-c2c(cnn2C)S(=O)(=O)N3C)cc1 , give its measured %Inh value.
A: 3

Q: For the compound COc1cc(Nc2nccc(N3CCC(NC(=O)Nc4cccc(C(C)=O)c4)C3)n2)cc(OC)c1OC (centres unmarked) , give its measured %Inh value.
A: 0

Q: For the compound c1ccc(-c2n[nH]cc2Nc2ccnc3ccccc23)nc1 , give its measured %Inh value.
A: 46

Q: For the compound O=C(Nc1cccc(-c2nn3ccccc3c2-c2ccnc(Nc3cccc(F)c3)n2)c1)c1c(F)ccc(F)c1Cl , give its measured %Inh value.
A: 0

Q: For the compound Cl.NC(=O)c1cccc(Nc2nccc(Nc3ccc(Oc4c(Cl)cccc4Cl)c(Cl)c3)n2)c1 , give its measured %Inh value.
A: 0

Q: For the compound Cl.c1ccc(-c2ccc3c(Nc4ccc5[nH]ncc5c4)ccnc3c2)nc1 , give its measured %Inh value.
A: 29

Q: For the compound CNC(=O)c1ccccc1Nc1nc(Nc2ccc(N3CCOCC3)cc2)ncc1Cl.Cl , give its measured %Inh value.
A: 45

Q: For the compound COC(=O)Nc1nc2ccc(Oc3ccc(NC(=O)Nc4cc(C(F)(F)F)ccc4F)cc3)cc2n1C.Cl , give its measured %Inh value.
A: 0

----------
Test system: MST3
Construct: gene STK24
condition-context: concentration: 1 μM, replicates: in singlicate; n = 1
I'd be grateful if you could share measured %Inh for these entries.
Give a bare numeral; the unit % is implied.

Q: For the compound Cl.Cl.NCC(C(=O)Nc1cc(Br)c(-c2ccnc3[nH]ccc23)s1)c1ccccc1 (stereo not drawn) , give its measured %Inh value.
A: 0

Q: For the compound CCS(=O)(=O)c1ccc(OC)c(Nc2nccc(-c3c(-c4cccc(NC(=O)c5c(F)cccc5F)c4)nn4ncccc34)n2)c1 , give its measured %Inh value.
A: 0

Q: For the compound Cn1cc(-c2ccc3c(c2)CCN3C(=O)Cc2cccc(Cl)c2)c2c(N)ncnc21 , give its measured %Inh value.
A: 17
